The measured values listed here are drawn from ChEMBL document CHEMBL1759969.

Sequence of the target: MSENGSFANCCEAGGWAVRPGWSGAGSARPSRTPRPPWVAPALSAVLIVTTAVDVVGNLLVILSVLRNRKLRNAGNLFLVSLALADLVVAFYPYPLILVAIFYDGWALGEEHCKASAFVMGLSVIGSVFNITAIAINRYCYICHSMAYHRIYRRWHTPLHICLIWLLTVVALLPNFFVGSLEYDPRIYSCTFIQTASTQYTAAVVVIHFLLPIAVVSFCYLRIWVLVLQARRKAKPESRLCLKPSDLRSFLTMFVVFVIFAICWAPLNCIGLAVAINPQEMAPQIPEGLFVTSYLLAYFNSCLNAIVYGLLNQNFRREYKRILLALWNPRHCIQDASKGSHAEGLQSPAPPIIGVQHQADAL
Task for the reader: assign each of the following molecules its reported Ki.
Remember to put the unit after the number in your answer.

Req: Data request, read-out Ki, for `COc1ccc2c3c(n(CCNC(C)=O)c2n1)CCCC3`
Resp: 0.68 nM

Req: For `COc1ccc2c(CN(C)Cc3ccccc3)cn(CCNC(C)=O)c2n1` , what is its reported Ki?
Resp: 4010 nM

Req: Would you kindly share the measured Ki for `COc1ccc2c(C(=O)C(F)(F)F)cn(CCNC(C)=O)c2n1` ?
Resp: 30 nM

Req: For the molecule `CCCC(=O)NCCn1ccc2ccc(OC)nc21` , what Ki is on record?
Resp: 0.3 nM

Req: Look at this molecule and give its reported Ki. `COc1ccc2c(CN3CCC(C(=O)c4ccc(F)cc4)CC3)cn(CCNC(C)=O)c2n1`
Resp: 7440 nM
